- targetEntity: T1, human prolactin receptor on transfected FDC-P1 cells (human, UniProt P16471 25-622)
- T1 sequence (looked up): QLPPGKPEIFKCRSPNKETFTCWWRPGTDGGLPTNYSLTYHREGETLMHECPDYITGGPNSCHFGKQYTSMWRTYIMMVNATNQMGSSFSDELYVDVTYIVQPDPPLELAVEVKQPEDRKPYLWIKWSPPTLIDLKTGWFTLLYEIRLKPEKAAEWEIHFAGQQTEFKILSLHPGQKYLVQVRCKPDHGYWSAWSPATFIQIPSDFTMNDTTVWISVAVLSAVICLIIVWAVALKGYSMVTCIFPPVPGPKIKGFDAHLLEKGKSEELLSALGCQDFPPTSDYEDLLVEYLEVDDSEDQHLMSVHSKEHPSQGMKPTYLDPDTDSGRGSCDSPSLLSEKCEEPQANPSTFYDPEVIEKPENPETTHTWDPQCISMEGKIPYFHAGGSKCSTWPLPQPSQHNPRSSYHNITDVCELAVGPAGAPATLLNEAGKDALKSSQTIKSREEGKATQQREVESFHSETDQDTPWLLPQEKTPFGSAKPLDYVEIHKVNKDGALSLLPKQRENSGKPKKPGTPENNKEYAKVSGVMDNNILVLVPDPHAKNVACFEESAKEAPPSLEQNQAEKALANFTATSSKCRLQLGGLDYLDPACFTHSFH
- assayRemarks: cell-based or functional assay
Provide the reported Relative fold loss of activity, FDC-P1 lactogenic assay of each item.
Report the value in fold with no unit label.

query: Input H173E human prolactin (ligand) MLPICPGGAARCQVTLRDLFDRAVVLSHYIHNLSSEMFSEFDKRYTHGRGFITKAINSCHTSSLATPEDKEQAQQMNQKDFLSLIVSILRSWNEPLYHLVTEVRGMQEAPEAILSKAVEIEEQTKRLLEGMELIVSQVHPETKENEIYPVWSGLPSLQMADEESRLSAYYNLLECLRRDSHKIDNYLKLLKCRIIHNNNC , output reported Relative fold loss of activity, FDC-P1 lactogenic assay.
result: 1570

query: Give Relative fold loss of activity, FDC-P1 lactogenic assay for L165E human prolactin (ligand) MLPICPGGAARCQVTLRDLFDRAVVLSHYIHNLSSEMFSEFDKRYTHGRGFITKAINSCHTSSLATPEDKEQAQQMNQKDFLSLIVSILRSWNEPLYHLVTEVRGMQEAPEAILSKAVEIEEQTKRLLEGMELIVSQVHPETKENEIYPVWSGLPSLQMADEESRESAYYNLLHCLRRDSHKIDNYLKLLKCRIIHNNNC
result: 41

query: Return Relative fold loss of activity, FDC-P1 lactogenic assay (reported value) for this binder: F50E human prolactin (ligand) MLPICPGGAARCQVTLRDLFDRAVVLSHYIHNLSSEMFSEFDKRYTHGRGEITKAINSCHTSSLATPEDKEQAQQMNQKDFLSLIVSILRSWNEPLYHLVTEVRGMQEAPEAILSKAVEIEEQTKRLLEGMELIVSQVHPETKENEIYPVWSGLPSLQMADEESRLSAYYNLLHCLRRDSHKIDNYLKLLKCRIIHNNNC
result: 5
